This section lists MIC50 readings for Bacillus subtilis DSM10.
Metric name: MIC50 (µg/mL)

- Compound: "CC(C)=CCC/C(C)=C/Cc1c(C)[nH]c2ccccc2c1=O [compound 9]"
  Unit spec: "µg/mL"
  Censoring sign: "<"
  Reported: 0.1
- Compound: "CC(C)=CCc1c(C)[nH]c2ccccc2c1=O [compound 10]"
  Unit spec: "µg/mL"
  Censoring sign: "="
  Reported: 0.22
- Compound: "Cc1[nH]c2ccccc2c(=O)c1C [compound 11]"
  Unit spec: "µg/mL"
  Censoring sign: "="
  Reported: 49
- Compound: "CC(C)=CCC/C(C)=C/CC/C(C)=C/Cc1c(C)[nH]c2ccccc2c1=O [compound 4, aurachin D]"
  Unit spec: "µg/mL"
  Censoring sign: "<"
  Reported: 0.1
- Compound: "CC(C)=CCCC(C)=CCCC(C)=CCc1c(C)[nH]c2ccc3ccccc3c2c1=O [compound 17]"
  Unit spec: "µg/mL"
  Censoring sign: ">"
  Reported: 64
- Compound: "CC(C)=CCCC(C)=CCCC(C)=CCc1c(C)[nH]c2cc3c(cc2c1=O)OCO3 [compound 19]"
  Unit spec: "µg/mL"
  Censoring sign: "="
  Reported: 4.66
- Compound: "COc1ccc2[nH]c(C)c(CC=C(C)CCC=C(C)CCC=C(C)C)c(=O)c2c1 [compound 18]"
  Unit spec: "µg/mL"
  Censoring sign: "="
  Reported: 6.75

----------
# Tested on: K562 myelogenous leukemia cells
# Test summary: Cytotoxicity, growth inhibition (MTT)
# Type: cell-based
# Experimental context: Homo sapiens, K562, 120 h; 5 days treatment; triplicate, mean ±SD; read-out: IC50: half inhibitory concentration, K562
# Method: The cytotoxic activity of aurachin D (4) and analogues 9–11 and 17–19 was evaluated in growth inhibition experiments on mammalian cell lines (Table 2). After 5 days treatment, half inhibitory concentrations (IC50) were determined for human HCT-116 colon carcinoma and human K562 myelogenous leukemia cells. […] was further incubated for 1.5 h. The medium was then discarded and 100 µL 2-propanol/10 N HCl (250:1) was added in order to dissolve formazan granules. […]
Metric name: IC50 (µg/mL)

- Molecule: "CC(C)=CCC/C(C)=C/CC/C(C)=C/Cc1c(C)[nH]c2ccccc2c1=O [compound 4, aurachin D]"
  Metric name: "IC50"
  Unit spec: "µg/mL"
  Censoring sign: "="
  Reported: 0.65
- Molecule: "COc1ccc2[nH]c(C)c(CC=C(C)CCC=C(C)CCC=C(C)C)c(=O)c2c1 [compound 18]"
  Metric name: "IC50"
  Unit spec: "µg/mL"
  Censoring sign: "="
  Reported: 1.15
- Molecule: "CC(C)=CCCC(C)=CCCC(C)=CCc1c(C)[nH]c2cc3c(cc2c1=O)OCO3 [compound 19]"
  Metric name: "IC50"
  Unit spec: "µg/mL"
  Censoring sign: ">"
  Reported: 10
- Molecule: "CC(C)=CCC/C(C)=C/Cc1c(C)[nH]c2ccccc2c1=O [compound 9]"
  Metric name: "IC50"
  Unit spec: "µg/mL"
  Censoring sign: "="
  Reported: 1.5
- Molecule: "Cc1[nH]c2ccccc2c(=O)c1C [compound 11]"
  Metric name: "IC50"
  Unit spec: "µg/mL"
  Censoring sign: ">"
  Reported: 10

----------
# Test summary: Cytotoxicity, growth inhibition (MTT)
# Type: cell-based, human
# Experimental context: human, cell line not named at the place (Table 2: HCT-116 and K562); read-out: cytotoxic activity (IC50) on mammalian cell lines

- Line notation: "COc1ccc2[nH]c(C)c(CC=C(C)CCC=C(C)CCC=C(C)C)c(=O)c2c1"
  IC50 at 5 days: "~1 µg/mL"

----------
Let's go through some recorded MIC50 values for Micrococcus luteus together.

- Molecule: "CC(C)=CCC/C(C)=C/Cc1c(C)[nH]c2ccccc2c1=O [compound 9]"
  Unit spec: "µg/mL"
  Censoring sign: "="
  MIC50: 2.59
- Molecule: "CC(C)=CCC/C(C)=C/CC/C(C)=C/Cc1c(C)[nH]c2ccccc2c1=O [compound 4, aurachin D]"
  Unit spec: "µg/mL"
  Censoring sign: "="
  MIC50: 1.47
- Molecule: "CC(C)=CCCC(C)=CCCC(C)=CCc1c(C)[nH]c2cc3c(cc2c1=O)OCO3 [compound 19]"
  Unit spec: "µg/mL"
  Censoring sign: ">"
  MIC50: 64
- Molecule: "CC(C)=CCc1c(C)[nH]c2ccccc2c1=O [compound 10]"
  Unit spec: "µg/mL"
  Censoring sign: "="
  MIC50: 14.3
- Molecule: "CC(C)=CCCC(C)=CCCC(C)=CCc1c(C)[nH]c2ccc3ccccc3c2c1=O [compound 17]"
  Unit spec: "µg/mL"
  Censoring sign: ">"
  MIC50: 64
- Molecule: "COc1ccc2[nH]c(C)c(CC=C(C)CCC=C(C)CCC=C(C)C)c(=O)c2c1 [compound 18]"
  Unit spec: "µg/mL"
  Censoring sign: "="
  MIC50: 49.2
- Molecule: "Cc1[nH]c2ccccc2c(=O)c1C [compound 11]"
  Unit spec: "µg/mL"
  Censoring sign: ">"
  MIC50: 64

----------
# System: Plasmodium falciparum FcB1 (chloroquine-resistant)
# Test summary: In vitro antiplasmodial assay ([3H]-hypoxanthine incorporation)
# Assay type: cell-based
# Experimental context: Plasmodium falciparum, FCB1; triplicate (except compound 24), mean ±SD; read-out: IC50 P. falciparum FcB1
Entries get a class label from measured IC50. See ranges: bottom bin (below 0.4 µg/mL), middle bin (0.4 µg/mL to below 1 µg/mL), top bin (1 µg/mL or more)

- Molecule: "CC(C)=CCCC(C)=CCCC(C)=CCc1c(C)[nH]c2ccc3ccccc3c2c1=O"
  Classification: "middle bin"
- Molecule: "COc1ccc2[nH]c(C)c(CC=C(C)CCC=C(C)CCC=C(C)C)c(=O)c2c1"
  Classification: "bottom bin"
- Molecule: "Cc1c(C)n(O)c2ccccc2c1=O [compound 25, N-hydroxy-2,3-dimethyl-4(1H)-quinolone]"
  Classification: "top bin"
- Molecule: "Cc1[nH]c2ccccc2c(=O)c1Br"
  Classification: "top bin"
- Molecule: "CC(C)=CCCC(C)=CCCC(C)=CCc1c(C)[nH]c2cc3c(cc2c1=O)OCO3"
  Classification: "middle bin"
- Molecule: "CC(C)=CCC/C(C)=C/Cc1c(C)[nH]c2ccccc2c1=O"
  Classification: "bottom bin"
- Molecule: "Cc1cc(=O)c2ccccc2[nH]1 [compound 23, 2-methyl-4(1H)-quinolone, reference compound]"
  Classification: "top bin"
- Molecule: "Cc1[nH]c2ccccc2c(=O)c1C"
  Classification: "top bin"
- Molecule: "CC(C)=CCC/C(C)=C/CC/C(C)=C/Cc1c(C)[nH]c2ccccc2c1=O"
  Classification: "bottom bin"
- Molecule: "CC(C)=CCc1c(C)[nH]c2ccccc2c1=O"
  Classification: "middle bin"

Data origin, for the record: paper PMC3740496
